# method: Apparent permeability in MDCK cells
# Assay type: ADME, cell-based, Canis lupus familiaris
# measurement_setup: dog
observed_property: Papp (×10⁻⁶ cm/s)
One number for each entry, in ×10⁻⁶ cm/s.

Inquiry: Query: Papp; subject: Cc1ccc(-c2cnc(N)c(-c3cnn(C)c3)c2)cc1
Reply text: 16.9

###

# method: Intrinsic clearance in human liver microsomes
# Type: ADME, microsome
# measurement_setup: read-out: CLH (converted)
observed_property: CLint scaled (mL/min/kg)
One number for each entry, in mL/min/kg.

Inquiry: Query: CLint scaled; subject: Cc1ccc(-c2cnc(N)c(-c3cnn(C)c3)c2)cc1
Reply text: 100

###

Please respond with reported inhibition for every item in the list.
# study_system: Leucine-rich repeat serine/threonine-protein kinase 2 (Homo sapiens, UniProt Q5S007)
# Sequence (Q5S007 whole entry, the tested form may be a part): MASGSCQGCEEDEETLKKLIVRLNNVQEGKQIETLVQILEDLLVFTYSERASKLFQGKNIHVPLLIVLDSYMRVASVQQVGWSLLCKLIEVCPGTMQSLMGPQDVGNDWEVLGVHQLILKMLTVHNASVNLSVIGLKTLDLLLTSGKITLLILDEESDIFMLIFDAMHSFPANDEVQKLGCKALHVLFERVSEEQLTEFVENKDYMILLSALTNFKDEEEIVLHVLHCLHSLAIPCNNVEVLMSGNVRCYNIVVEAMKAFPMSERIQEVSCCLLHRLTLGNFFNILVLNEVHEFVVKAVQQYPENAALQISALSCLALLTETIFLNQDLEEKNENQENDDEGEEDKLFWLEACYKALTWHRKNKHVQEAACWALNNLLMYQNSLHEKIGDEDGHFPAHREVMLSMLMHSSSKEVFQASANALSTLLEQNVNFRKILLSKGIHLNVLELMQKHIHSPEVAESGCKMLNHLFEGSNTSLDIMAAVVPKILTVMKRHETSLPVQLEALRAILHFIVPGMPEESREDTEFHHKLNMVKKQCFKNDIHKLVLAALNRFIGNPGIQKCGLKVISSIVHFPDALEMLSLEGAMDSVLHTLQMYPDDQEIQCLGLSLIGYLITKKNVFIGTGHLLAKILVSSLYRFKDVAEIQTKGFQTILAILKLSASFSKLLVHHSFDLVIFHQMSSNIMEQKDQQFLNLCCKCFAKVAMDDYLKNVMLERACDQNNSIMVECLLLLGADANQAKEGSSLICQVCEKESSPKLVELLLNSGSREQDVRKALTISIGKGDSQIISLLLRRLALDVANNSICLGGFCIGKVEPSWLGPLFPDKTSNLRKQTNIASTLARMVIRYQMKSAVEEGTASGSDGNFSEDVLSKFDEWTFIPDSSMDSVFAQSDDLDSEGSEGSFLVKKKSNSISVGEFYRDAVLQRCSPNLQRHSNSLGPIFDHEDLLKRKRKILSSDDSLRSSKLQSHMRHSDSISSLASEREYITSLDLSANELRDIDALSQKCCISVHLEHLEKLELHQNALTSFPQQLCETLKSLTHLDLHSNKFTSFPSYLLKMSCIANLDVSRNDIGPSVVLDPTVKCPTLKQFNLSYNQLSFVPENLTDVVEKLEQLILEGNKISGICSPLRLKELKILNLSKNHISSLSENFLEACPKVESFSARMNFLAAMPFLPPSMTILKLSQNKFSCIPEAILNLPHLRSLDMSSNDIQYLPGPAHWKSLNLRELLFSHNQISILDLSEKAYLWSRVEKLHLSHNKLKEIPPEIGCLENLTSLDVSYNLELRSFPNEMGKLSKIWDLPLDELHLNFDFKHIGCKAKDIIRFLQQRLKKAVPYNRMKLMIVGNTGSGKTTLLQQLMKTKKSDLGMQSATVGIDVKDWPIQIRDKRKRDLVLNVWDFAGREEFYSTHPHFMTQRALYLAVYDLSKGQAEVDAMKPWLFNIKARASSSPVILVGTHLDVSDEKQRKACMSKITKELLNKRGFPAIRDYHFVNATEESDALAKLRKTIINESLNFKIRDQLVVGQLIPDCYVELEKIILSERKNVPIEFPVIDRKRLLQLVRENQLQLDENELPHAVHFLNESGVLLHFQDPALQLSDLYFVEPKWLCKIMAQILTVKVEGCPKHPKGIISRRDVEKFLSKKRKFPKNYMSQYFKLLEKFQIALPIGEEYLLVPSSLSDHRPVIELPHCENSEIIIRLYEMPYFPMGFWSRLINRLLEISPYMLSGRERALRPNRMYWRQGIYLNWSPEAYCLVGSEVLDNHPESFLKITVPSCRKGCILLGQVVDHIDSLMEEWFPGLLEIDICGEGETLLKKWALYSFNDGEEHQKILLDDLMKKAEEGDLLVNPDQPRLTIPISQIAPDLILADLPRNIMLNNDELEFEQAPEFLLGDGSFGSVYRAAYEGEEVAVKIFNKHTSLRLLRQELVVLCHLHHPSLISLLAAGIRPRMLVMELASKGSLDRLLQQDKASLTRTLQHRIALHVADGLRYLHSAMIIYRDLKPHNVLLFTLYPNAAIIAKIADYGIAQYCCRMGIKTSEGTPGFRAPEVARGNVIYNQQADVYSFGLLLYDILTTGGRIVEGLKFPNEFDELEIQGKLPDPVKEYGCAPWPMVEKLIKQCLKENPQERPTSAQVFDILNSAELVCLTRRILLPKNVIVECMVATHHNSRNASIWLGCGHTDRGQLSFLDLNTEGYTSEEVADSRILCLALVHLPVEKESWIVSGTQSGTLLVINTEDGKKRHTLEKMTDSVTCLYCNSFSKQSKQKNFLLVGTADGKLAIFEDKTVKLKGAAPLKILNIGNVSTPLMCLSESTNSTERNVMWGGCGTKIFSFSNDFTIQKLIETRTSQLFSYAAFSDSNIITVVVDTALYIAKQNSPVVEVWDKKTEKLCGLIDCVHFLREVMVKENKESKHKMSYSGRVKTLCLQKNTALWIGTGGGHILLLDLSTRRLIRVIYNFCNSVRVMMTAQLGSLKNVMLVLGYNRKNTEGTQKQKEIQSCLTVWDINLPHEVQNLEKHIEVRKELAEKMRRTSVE
# method: Inhibition of recombinant human wild type GST-tagged LRRK2 (970 to 2527 residues) at 200 uM preincubated for 30 mins followed by fluorescein-LRRKtide substrate addition after 2 hrs by TR-FRET assay relative to control
Give bare numbers, in %.

// below: answered compounds
Inquiry: Query: inhibition; subject: Cc1ccc(-c2cnc(N)c(-c3cn(C)cn3)c2)cc1
Reply text: 60

Inquiry: Quick one: Cn1cc(-c2cc(-c3ccc4[nH]ccc4c3)cnc2N)cn1
Reply text: 75

Inquiry: Quick one: Cc1ccc(-c2cnc(N)c(-c3cnn(C)c3C)c2)cc1
Reply text: 49

Turning now to a further compound:
Inquiry: Query: inhibition; subject: Cn1ccc(-c2cc(-c3ccc4[nH]ccc4c3)cnc2N)n1
Reply text: 48

###

Please respond with reported solubility for every item in the list.
# method: Aqueous solubility of the compound in pH 7.4
# Type: physicochemical
# measurement_setup: aqueous medium
One number for each entry, in µg/mL.

Inquiry: Query: solubility; subject: CC(C)n1cc(-c2cc(-c3ccc(CN4CCOCC4)cc3)cnc2N)nn1
Reply text: 36

Turning now to a further molecule:
Inquiry: Query: solubility; subject: Cc1ccc(-c2cnc(N)c(-c3cnn(C)c3)c2)cc1
Reply text: 11

###

Consider the following log10(IC50) values measured on Leucine-rich repeat serine/threonine-protein kinase 2 (Homo sapiens).
On a log10 scale: recorded IC50, unit µM.

// below: answered compounds
Inquiry: Find log10(IC50) (Leucine-rich repeat serine/threonine-protein kinase 2 (Homo sapiens)) for the entry CCNc1nc(Nc2cc(F)c(C(=O)N3CCOCC3)cc2OC)ncc1C(F)(F)F
Reply text: -1.01

Inquiry: Quick one: CCn1cc(-c2cc(-c3ccc(C)cc3)cnc2N)cn1
Reply text: 1.08

Give log10(IC50) for all compounds that follow.
1. Cc1ccc(-c2cnc(N)c(-c3cnc(C)o3)c2)cc1
2. Cc1ccc(-c2cnc(N)c(-c3nnc(C4CC4)o3)c2)cc1
3. Cc1ccc(-c2cnc(N)c(-c3cnn(C)c3)c2)cc1
4. Nc1ncc(-c2ccc3[nH]ccc3c2)cc1-c1nnc(C2CC2)o1

Reply text:
1.38
0.36
1.20
0.11

###

Please respond with reported log10 IC50 for every item in the list.
# study_system: Leucine-rich repeat serine/threonine-protein kinase 2 (Homo sapiens, UniProt Q5S007, G2019S)
# Sequence (Q5S007 whole entry G2019S): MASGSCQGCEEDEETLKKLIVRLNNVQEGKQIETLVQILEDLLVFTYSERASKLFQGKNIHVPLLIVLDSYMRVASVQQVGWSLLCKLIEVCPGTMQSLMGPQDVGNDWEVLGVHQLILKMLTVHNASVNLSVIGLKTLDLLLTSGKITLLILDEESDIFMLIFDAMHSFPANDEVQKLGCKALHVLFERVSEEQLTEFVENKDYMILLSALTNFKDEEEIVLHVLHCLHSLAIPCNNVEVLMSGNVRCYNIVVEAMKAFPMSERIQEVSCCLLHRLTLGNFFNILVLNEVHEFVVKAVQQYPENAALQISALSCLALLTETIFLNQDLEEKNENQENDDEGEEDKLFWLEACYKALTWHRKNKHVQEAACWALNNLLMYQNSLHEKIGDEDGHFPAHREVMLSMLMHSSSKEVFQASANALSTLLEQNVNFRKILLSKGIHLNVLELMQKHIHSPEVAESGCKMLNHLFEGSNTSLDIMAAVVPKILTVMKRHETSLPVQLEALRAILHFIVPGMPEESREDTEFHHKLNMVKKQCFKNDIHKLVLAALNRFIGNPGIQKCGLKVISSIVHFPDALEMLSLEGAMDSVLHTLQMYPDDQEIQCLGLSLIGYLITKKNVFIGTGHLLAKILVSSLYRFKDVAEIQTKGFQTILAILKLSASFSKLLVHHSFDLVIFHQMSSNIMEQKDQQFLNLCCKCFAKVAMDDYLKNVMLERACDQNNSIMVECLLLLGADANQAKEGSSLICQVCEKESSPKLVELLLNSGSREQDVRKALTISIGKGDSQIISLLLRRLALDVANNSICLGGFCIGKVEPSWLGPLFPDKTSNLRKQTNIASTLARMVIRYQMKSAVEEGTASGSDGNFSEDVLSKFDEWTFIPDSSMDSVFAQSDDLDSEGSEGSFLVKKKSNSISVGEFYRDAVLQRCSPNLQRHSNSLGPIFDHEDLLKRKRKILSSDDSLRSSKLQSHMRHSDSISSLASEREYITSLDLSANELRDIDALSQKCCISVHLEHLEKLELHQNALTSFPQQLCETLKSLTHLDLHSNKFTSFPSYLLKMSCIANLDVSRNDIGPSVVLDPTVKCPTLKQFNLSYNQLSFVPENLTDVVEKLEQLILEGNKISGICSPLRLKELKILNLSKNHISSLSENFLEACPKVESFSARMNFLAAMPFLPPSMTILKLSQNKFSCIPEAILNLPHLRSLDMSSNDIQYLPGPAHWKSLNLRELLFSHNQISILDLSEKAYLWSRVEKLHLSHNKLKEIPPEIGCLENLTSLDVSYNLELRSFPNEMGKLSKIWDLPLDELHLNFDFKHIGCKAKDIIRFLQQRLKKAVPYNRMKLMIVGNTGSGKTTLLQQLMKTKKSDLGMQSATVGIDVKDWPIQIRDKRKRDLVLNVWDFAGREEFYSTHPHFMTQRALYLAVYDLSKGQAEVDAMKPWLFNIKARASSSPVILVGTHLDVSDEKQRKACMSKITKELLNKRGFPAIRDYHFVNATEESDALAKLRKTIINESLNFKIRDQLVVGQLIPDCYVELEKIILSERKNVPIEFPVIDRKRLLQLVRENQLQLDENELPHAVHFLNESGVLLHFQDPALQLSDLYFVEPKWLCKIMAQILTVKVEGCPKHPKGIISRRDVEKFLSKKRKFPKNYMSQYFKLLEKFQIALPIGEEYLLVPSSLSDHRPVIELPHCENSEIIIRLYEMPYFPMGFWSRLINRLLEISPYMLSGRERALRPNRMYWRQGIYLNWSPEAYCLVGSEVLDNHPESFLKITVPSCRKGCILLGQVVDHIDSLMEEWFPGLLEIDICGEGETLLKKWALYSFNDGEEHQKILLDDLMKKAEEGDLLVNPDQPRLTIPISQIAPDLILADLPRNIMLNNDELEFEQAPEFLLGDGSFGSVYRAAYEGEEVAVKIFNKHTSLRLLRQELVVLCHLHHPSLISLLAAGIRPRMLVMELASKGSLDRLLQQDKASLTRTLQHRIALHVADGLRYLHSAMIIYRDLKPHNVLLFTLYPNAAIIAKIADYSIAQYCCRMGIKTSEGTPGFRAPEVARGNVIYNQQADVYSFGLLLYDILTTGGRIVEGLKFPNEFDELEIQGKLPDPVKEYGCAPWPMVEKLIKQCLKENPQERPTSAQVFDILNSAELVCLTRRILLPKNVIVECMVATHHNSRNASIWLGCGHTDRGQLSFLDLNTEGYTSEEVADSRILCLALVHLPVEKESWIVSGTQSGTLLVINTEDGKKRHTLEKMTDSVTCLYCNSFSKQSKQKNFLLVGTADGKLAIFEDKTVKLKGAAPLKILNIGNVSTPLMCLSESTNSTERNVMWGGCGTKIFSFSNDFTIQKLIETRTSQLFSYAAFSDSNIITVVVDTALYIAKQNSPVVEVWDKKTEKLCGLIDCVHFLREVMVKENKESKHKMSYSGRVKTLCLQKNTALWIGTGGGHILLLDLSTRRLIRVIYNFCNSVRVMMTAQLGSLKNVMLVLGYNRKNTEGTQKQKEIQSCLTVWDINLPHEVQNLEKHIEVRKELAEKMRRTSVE
On a log10 scale: recorded IC50, unit µM.

Inquiry: Query: log10 IC50; subject: CCNc1nc(Nc2cc(F)c(C(=O)N3CCOCC3)cc2OC)ncc1C(F)(F)F
Reply text: -1.34

Inquiry: Quick one: CCc1nnc(-c2cc(-c3ccc4[nH]ccc4c3)cnc2N)o1
Reply text: 0.46

Inquiry: Quick one: Cc1ccc(-c2cnc(N)c(-c3nnc(C4CC4)o3)c2)cc1
Reply text: 0.34

Inquiry: Quick one: Cc1ccc(-c2cnc(N)c(-c3cnc(C)o3)c2)cc1
Reply text: 1.04

Inquiry: Quick one: Cc1ccc(-c2cnc(N)c(-c3cnn(C)c3)c2)cc1
Reply text: 0.83

Turning now to a further molecule:
Inquiry: Query: log10 IC50; subject: Cc1nnc(-c2cc(-c3ccc4[nH]ccc4c3)cnc2N)o1
Reply text: 0.56
